- Target: MBD2sc (human, UniProt Q9UBB5 150-393+Q86YP4:137-178, internal_change)
- Sequence (Q9UBB5 other isoform, or with tags, fused parts or gaps): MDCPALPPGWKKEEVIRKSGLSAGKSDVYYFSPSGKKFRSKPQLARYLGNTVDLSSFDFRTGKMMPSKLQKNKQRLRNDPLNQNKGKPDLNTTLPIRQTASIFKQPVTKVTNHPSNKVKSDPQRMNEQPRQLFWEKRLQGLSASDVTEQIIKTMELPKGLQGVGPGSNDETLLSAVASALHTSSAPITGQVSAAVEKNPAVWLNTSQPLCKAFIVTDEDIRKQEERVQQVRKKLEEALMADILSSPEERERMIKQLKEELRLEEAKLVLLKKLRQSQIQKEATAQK
- Protocol Details: fluorescence anisotropy; FA: 50 mM Hepes pH 7.5, 100 mM NaCl, 1 mM MgCl2, 10 nM DNA, temperature not stated; SPR: 50 mM Hepes pH 7.5, 150 mM NaCl, 1 mM MgCl2, 1 mM TCEP, 0.05% Tween-20; NMR: 10 mM NaPO4 pH 6.5, 150 mM NaCl, 1 mM DTT, 10% 2H2O, 25 C
- Experimental Setup: protein: recombinant; tags: N-terminal thioredoxin-His6-TEV site (removal stated only for NMR); label: 5' 6-FAM on strand 1; blunt
Assay Readout: pKd
Lab note — pKd values are minus log10 of concentrations in M.

# pKd lookup, item 17 bp CpG-free FAM (dsDNA) DNA 1: CTGGCCCCAGGGCCCTC DNA 2: GAGGGCCCTGGGGCCAG
5.04

Can you check 17 bp mCpG FAM (dsDNA, 5-methylcytosine at C8 of strand 1 and C9 of strand 2 (symmetric)) DNA 1: CTGCCGCCGAGCGCCTC DNA 2: GAGGCGCTCGGCGGCAG next?
8.15

Can you check 17 bp CpG FAM (unmethylated) (dsDNA) DNA 1: CTGCCGCCGAGCGCCTC DNA 2: GAGGCGCTCGGCGGCAG next?
5.55
